Hi! I'm sharing some pIC50 results obtained with LdCYP51 (Leishmania donovani).
Sequence (A0A3S7WRS7 32-480): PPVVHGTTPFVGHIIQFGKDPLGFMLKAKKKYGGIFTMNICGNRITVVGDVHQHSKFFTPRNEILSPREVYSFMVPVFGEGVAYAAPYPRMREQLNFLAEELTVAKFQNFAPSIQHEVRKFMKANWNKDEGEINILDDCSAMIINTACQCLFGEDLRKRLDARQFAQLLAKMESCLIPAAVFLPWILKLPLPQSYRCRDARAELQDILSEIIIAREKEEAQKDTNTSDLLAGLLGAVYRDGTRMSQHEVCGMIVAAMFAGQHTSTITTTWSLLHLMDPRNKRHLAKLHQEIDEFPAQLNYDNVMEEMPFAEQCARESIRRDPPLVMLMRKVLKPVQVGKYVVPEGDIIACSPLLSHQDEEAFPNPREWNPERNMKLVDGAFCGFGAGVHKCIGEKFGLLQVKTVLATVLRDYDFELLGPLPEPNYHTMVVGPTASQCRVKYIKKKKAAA
One number for each entry, as −log10 of the molar value.

Worked examples, 3 molecules total:
| Molecule | pIC50 |
| --- | --- |
| Clc1ccc(C(Cn2ccnc2)OCc2ccsc2Cl)c(Cl)c1 (stereo not drawn) [Tioconazole] | 7.27 |
| C[C@@H](c1ncncc1F)[C@](O)(Cn1cncn1)c1ccc(F)cc1F [Voriconazole] | 7.07 |
| C[C@@H](c1nc(-c2ccc(C#N)cc2)cs1)[C@](O)(Cn1cncn1)c1ccc(F)cc1F [Ravuconazole] | 7.31 |

Look up pIC50 for the entries below, preserving their order.
1. Clc1ccc(C(Cn2ccnc2)OCc2ccc(Sc3ccccc3)cc2)c(Cl)c1 (stereo not drawn) [Fenticonazole]
2. Clc1ccccc1C(c1ccccc1)(c1ccccc1)n1ccnc1 [Clotrimazole]
3. C=C1CCN([C@H](C)[C@](O)(Cn2cncn2)c2ccc(F)cc2F)CC1 [Efinaconazole]
4. CC(C)N1CCN(c2ccc(OCC3COC(Cn4cncn4)(c4ccc(Cl)cc4Cl)O3)cc2)CC1 (stereo not drawn) [Terconazole]
5. Clc1ccc(C(Cn2ccnc2)OCc2csc3c(Cl)cccc23)c(Cl)c1 (stereo not drawn) [Sertaconazole]
6. Clc1ccc(COC(Cn2ccnc2)c2ccc(Cl)cc2Cl)cc1 (stereo not drawn) [Econazole]
7. CCC(C)n1ncn(-c2ccc(N3CCN(c4ccc(OCC5COC(Cn6cncn6)(c6ccc(Cl)cc6Cl)O5)cc4)CC3)cc2)c1=O (stereo not drawn) [Itraconazole]

Reply:
1. 7.09
2. 7.17
3. 7.17
4. 7.08
5. 7.19
6. 7.34
7. 7.31

Look up pIC50 for the entries below, preserving their order.
1. c1ccc(-c2ccc(C(c3ccccc3)n3ccnc3)cc2)cc1 (stereo not drawn) [Bifonazole]
2. Clc1ccc(COC(Cn2ccnc2)c2ccc(Cl)cc2Cl)c(Cl)c1 (stereo not drawn) [Miconazole]
3. CCCCCCCCCCCCCCCCOP(=O)([O-])OCC[N+](C)(C)C [Miltefosine]
4. Clc1ccc(CCC(Cn2ccnc2)Sc2c(Cl)cccc2Cl)cc1 (stereo not drawn) [Butoconazole]
5. C[C@@H](c1nc(-c2ccc(C#N)cc2)cs1)[C@](O)(Cn1cncn1)c1cc(F)ccc1F [Isavuconazole]

Reply:
7.24
7.24
4.92
7.14
7.37

====

Biological target: LdCYP5122A1 (Leishmania donovani, UniProt A0A3S7X0B6)
Sequence (A0A3S7X0B6 61-592): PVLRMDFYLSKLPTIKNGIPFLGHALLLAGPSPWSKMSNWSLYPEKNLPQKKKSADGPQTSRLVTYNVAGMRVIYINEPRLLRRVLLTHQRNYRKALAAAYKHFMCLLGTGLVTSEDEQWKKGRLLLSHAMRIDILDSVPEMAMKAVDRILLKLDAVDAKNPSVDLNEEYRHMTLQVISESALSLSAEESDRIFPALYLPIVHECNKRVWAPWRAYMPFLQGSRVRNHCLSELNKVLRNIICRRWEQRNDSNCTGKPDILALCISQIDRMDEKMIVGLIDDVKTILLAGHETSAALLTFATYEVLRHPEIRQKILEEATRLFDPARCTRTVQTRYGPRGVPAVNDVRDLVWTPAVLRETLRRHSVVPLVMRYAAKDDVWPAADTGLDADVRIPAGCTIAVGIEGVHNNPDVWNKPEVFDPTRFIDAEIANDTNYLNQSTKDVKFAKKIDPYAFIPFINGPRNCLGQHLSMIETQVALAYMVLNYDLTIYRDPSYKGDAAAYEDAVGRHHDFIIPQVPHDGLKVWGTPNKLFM
Conditions: read-out: IC50 (LdCYP5122A1); mean ± standard deviation (n = 3)
Property name: IC50 (µM)
Answers are plain numbers, in µM.

Query: IC50; subject: CC(C)Oc1cc(NC(=N)c2ccccn2)ccc1-c1ccc(-c2ccc(NC(=N)c3ccccn3)cc2OC(C)C)o1
Reply: 1

====

Test system: L. donovani LV82 promastigotes
Assay: microbe, parasite or virus in culture
Conditions: Leishmania donovani, 72 h, read-out: EC50 (L. donovani)
Property name: EC50 (µM)
Numbers only, in µM.

Worked examples, 2 compounds total:
| Compound | Tested target | Property name | Readout number |
| --- | --- | --- | --- |
| Clc1ccc(C(Cn2ccnc2)OCc2ccc(Sc3ccccc3)cc2)c(Cl)c1 (stereo not drawn) | L. donovani LV82 promastigotes | EC50 | 5.6 |
| Clc1ccc(C(Cn2ccnc2)OCc2csc3c(Cl)cccc23)c(Cl)c1 (stereo not drawn) | L. donovani LV82 promastigotes | EC50 | 7.1 |

Look up EC50 for the entries below, preserving their order.
1. Clc1ccc(C(Cn2ccnc2)OCc2ccsc2Cl)c(Cl)c1 (stereo not drawn)
2. c1ccc(-c2ccc(C(c3ccccc3)n3ccnc3)cc2)cc1 (stereo not drawn)
3. Clc1ccc(C(Cn2ccnc2)OCc2c(Cl)cccc2Cl)c(Cl)c1 (stereo not drawn)
4. C[C@@H](c1nc(-c2ccc(C#N)cc2)cs1)[C@](O)(Cn1cncn1)c1ccc(F)cc1F

Reply:
9.5
12
6.2
12

====

Molecular target: L. donovani CYP5122A1 (Leishmania donovani, UniProt A0A3S7X0B6)
Sequence (A0A3S7X0B6 61-592): as the sequence (A0A3S7X0B6 61-592) above
Assay: UV-Vis difference binding spectra of ligands with purified recombinant CYP5122A1
Property name: Binding mode with CYP5122A1 (difference binding spectrum)

| Compound | Result |
| --- | --- |
| CC(C)=CCC[C@@H](C)[C@H]1CC=C2C3=C(CC[C@@]21C)[C@@]1(C)CC[C@H](O)C(C)(C)[C@@H]1CC3 [FF-MAS, 14-demethyl-14-dehydrolanosterol] | type I binding |
| CC(C)=CCC[C@@H](C)[C@H]1CC[C@@]2(C)C3=C(CC[C@]12C)[C@@]1(C)CC[C@H](O)[C@@H](C)[C@@H]1CC3 | type I binding |

====

Hi there, I'd appreciate the recorded EC50 for every entry that follows.
Test system: L. donovani LV82 promastigotes
Assay: microbe, parasite or virus in culture
Settings: Leishmania donovani, 72 h, read-out: EC50 (L. donovani)
Give bare numbers, in µM.

Worked examples, 5 molecules total:
| Molecule | EC50 [µM] |
| --- | --- |
| C[C@@H]1[C@H](O)[C@@H](C)/C=C/C=C/C=C/C=C/C=C/C=C/C=C/[C@H](O[C@@H]2O[C@H](C)[C@@H](O)[C@H](N)[C@@H]2O)C[C@@H]2O[C@](O)(C[C@@H](O)C[C@@H](O)[C@H](O)CC[C@@H](O)C[C@@H](O)CC(=O)O[C@H]1C)C[C@H](O)[C@H]2C(=O)O [Amphotericin B] | 0.14 |
| N=C(N)c1ccc(OCCCCCOc2ccc(C(=N)N)cc2)cc1 [Pentamidine] | 14 |
| CC(=O)N1CCN(c2ccc(OCC3COC(Cn4ccnc4)(c4ccc(Cl)cc4Cl)O3)cc2)CC1 (stereo not drawn) [Ketoconazole] | 22 |
| C[C@@H](c1nc(-c2ccc(C#N)cc2)cs1)[C@](O)(Cn1cncn1)c1cc(F)ccc1F [Isavuconazole] | 12 |
| CCC(C)n1ncn(-c2ccc(N3CCN(c4ccc(OCC5COC(Cn6cncn6)(c6ccc(Cl)cc6Cl)O5)cc4)CC3)cc2)c1=O (stereo not drawn) [Itraconazole] | 6 |

Look up EC50 for the entries below, preserving their order.
1. C=C1CCN([C@H](C)[C@](O)(Cn2cncn2)c2ccc(F)cc2F)CC1 [Efinaconazole]
2. CC(C)N1CCN(c2ccc(OCC3COC(Cn4cncn4)(c4ccc(Cl)cc4Cl)O3)cc2)CC1 (stereo not drawn) [Terconazole]
3. Clc1ccc(CCC(Cn2ccnc2)Sc2c(Cl)cccc2Cl)cc1 (stereo not drawn) [Butoconazole]

Reply:
15
13
1.9
